- TARGET ENTITY: human KDR on cells (human, UniProt P35968 20-1356)
- Sequence (P35968 20-1356): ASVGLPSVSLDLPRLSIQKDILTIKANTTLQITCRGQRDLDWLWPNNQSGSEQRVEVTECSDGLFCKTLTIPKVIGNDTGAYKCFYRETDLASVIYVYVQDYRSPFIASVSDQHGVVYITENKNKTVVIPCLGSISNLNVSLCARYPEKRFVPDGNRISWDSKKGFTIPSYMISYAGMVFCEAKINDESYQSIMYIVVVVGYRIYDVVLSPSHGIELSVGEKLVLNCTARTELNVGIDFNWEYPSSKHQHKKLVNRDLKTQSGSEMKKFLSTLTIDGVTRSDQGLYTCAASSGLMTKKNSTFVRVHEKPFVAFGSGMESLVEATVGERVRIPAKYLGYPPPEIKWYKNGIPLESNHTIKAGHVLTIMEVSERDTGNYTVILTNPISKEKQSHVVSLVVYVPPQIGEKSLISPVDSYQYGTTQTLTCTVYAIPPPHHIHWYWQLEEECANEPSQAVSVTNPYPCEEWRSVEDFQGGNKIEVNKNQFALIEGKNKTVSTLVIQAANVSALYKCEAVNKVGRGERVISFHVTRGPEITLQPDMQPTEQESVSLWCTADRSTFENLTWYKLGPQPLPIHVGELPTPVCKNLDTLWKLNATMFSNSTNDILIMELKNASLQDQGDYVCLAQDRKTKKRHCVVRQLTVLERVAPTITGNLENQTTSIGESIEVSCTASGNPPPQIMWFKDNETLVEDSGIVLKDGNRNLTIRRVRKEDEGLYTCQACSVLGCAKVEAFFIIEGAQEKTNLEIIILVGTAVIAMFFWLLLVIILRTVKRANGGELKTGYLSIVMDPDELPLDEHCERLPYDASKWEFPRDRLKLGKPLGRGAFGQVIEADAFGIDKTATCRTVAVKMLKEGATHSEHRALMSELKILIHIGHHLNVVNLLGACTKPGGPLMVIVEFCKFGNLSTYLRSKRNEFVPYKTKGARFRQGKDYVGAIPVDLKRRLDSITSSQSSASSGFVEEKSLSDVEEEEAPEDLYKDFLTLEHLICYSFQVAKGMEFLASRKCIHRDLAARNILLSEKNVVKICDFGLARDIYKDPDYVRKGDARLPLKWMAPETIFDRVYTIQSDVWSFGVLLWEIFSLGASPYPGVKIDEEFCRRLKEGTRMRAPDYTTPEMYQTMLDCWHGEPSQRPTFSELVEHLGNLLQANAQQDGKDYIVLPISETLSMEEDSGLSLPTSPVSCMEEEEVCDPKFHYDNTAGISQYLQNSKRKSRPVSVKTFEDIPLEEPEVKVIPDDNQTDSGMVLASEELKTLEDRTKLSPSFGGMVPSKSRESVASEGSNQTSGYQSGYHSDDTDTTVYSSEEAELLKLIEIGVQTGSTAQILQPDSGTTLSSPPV
- ASSAY INFO: cell-based or functional assay
% Inhibition (N = 2) of VEGF-C-mediated KDR activity, antibody 10 nM values for the binders below.
Write down the numeric answer in % and omit the unit.

{"columns": ["BINDER", "OBSERVED RESULT"],
 "data": [
  ["33E1 (antibody, V domains shown) VH: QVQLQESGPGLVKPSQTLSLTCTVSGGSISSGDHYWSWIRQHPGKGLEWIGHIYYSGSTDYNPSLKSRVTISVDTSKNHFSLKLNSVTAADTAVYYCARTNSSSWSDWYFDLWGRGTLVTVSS VL: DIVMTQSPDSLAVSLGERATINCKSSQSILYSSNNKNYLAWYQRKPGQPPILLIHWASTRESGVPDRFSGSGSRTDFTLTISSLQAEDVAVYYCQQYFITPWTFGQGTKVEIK", 64]
]}

API: the following record is the query input.
// % Inhibition (N = 2) of VEGF-C-mediated KDR activity, antibody 10 nM value for 27A3 (antibody, V domains shown) VH: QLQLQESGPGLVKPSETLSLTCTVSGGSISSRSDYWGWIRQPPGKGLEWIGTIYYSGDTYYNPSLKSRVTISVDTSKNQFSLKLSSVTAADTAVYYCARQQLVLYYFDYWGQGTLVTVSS VL: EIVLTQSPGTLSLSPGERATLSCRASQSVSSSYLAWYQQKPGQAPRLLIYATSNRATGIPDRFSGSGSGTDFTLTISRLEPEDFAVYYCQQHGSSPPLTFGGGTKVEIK : 80
